target: Mu-type opioid receptor (Homo sapiens, UniProt P35372); test: Agonist activity at MOP receptor expressed in CHO-K1 cells assessed as inhibition of forskolin-stimulated cAMP accumulation after 30 mins; format: functional, cell-based
Sequence (P35372 whole entry): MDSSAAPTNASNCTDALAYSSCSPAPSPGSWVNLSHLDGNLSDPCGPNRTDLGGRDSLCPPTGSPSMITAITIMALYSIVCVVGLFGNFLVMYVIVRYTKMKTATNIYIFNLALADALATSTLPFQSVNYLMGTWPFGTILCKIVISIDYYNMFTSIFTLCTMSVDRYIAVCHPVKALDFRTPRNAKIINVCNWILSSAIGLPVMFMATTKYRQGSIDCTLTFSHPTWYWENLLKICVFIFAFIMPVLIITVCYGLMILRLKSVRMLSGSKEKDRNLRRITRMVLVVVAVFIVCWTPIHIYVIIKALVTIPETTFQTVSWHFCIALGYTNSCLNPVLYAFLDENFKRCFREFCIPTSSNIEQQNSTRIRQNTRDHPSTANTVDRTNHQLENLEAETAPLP
value-type: pIC50
# reply with the number alone; pIC50 is -log10 of concentration in mol/L

State, in one line, measured pIC50 of H-YPWFFGLM-NH2
7.92

###

biological target: Delta-type opioid receptor (Homo sapiens, UniProt P41143); assay: Displacement of [3H]DPDPE from DOP receptor expressed in CHO-K1 cells after overnight incubation by beta counting method; format: cell-based
Sequence (P41143 whole entry): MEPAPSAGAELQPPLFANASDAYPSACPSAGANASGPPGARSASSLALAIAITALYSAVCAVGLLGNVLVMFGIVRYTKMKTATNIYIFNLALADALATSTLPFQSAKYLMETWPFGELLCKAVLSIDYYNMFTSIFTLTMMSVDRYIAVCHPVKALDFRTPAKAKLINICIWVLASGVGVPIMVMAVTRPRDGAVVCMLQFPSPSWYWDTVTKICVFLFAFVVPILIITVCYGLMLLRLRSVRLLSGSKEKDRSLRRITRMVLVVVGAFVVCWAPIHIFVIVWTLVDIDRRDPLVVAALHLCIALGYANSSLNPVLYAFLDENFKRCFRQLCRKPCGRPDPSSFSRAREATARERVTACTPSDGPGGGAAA
Consider the following substances; for each one, report its pKi.
Note: pKi values are expressed as the negative base-10 logarithm of concentration in M.

Print Delta-type opioid receptor (Homo sapiens, UniProt P41143) pKi for H-YPWFGLM-NH2 .
5.70

// fetch pKi for H-YPWFFGLM-NH2 ; system: Delta-type opioid receptor (Homo sapiens, UniProt P41143)
5.81

###

assay: in vitro; details: human, Caco-2
Description: Apparent permeability across human Caco2 cells st 200 uM measured over 150 mins by LC/MS analysis
Non-standard residues stand in square brackets, D forms with d. Residues, ends and D or L forms follow the SMILES beside them. ξ: configuration not given here. ξGly(octyl) = CCCCCCCCC(N)C(=O)O
Threshold check on Papp at 2.5 h, 200 µM: strictly below 1 ×10⁻⁶ cm/s is True; on or above 1 ×10⁻⁶ cm/s is False.

Please determine if CCCCCCCCC(N)C(=O)N[C@@H](Cc1ccc(O)cc1)C(=O)N1CCC[C@H]1C(=O)N[C@@H](Cc1c[nH]c2ccccc12)C(=O)N[C@@H](Cc1ccccc1)C(=O)NCC(=O)N[C@@H](CC(C)C)C(=O)N[C@@H](CCSC)C(N)=O (stereo not given in full) (H-[ξGly(octyl)]YPWFGLM-NH2) is below 1 ×10⁻⁶ cm/s in terms of Papp at 2.5 h, 200 µM.
False

Take the compound CCCCCCCCC(N)C(=O)N[C@@H](Cc1ccc(O)cc1)C(=O)N1CCC[C@H]1C(=O)N[C@@H](Cc1c[nH]c2ccccc12)C(=O)N[C@@H](Cc1ccccc1)C(=O)N[C@@H](Cc1ccccc1)C(=O)NCC(=O)N[C@@H](CC(C)C)C(=O)N[C@@H](CCSC)C(N)=O (stereo not given in full) (H-[ξGly(octyl)]YPWFFGLM-NH2) and say whether its Papp at 2.5 h, 200 µM is less than 1 ×10⁻⁶ cm/s.
False

# strict comparison: is reported Papp at 2.5 h, 200 µM < 1 ×10⁻⁶ cm/s? input = CC(C)NCC(O)COc1cccc2ccccc12 (stereo not given)
False

Given OC[C@@H](O)[C@@H](O)[C@H](O)[C@H](O)CO , is recorded Papp at 2.5 h, 200 µM strictly lower than 1 ×10⁻⁶ cm/s?
True

###

target: Mu-type opioid receptor (Homo sapiens); assay: Displacement of [3H]DAMGO from MOP receptor expressed in CHO-K1 cells after overnight incubation by beta counting method; assay type: cell-based
value-type: Ki (nM)
I only need the number, in nM, no unit after it.

Give recorded Ki. H-YPWFGLM-NH2
1.6

Indicate the recorded Ki value for this substance: H-YPWFFGLM-NH2
0.73
